Cited source: patent US10905118B2

Test: Isothermal titration calorimetry: critical aggregation concentration and thermodynamics of aggregation
Assay type: physicochemical
Settings: ITC, 37° C., pure water; double-tailed M-P and M-1 series
REPORTED_ENDPOINT: ΔHmic (kcal/mol)

STRUCTURE_STRING | U | RESULT_NUMBER
CCCCCCCCCCCCCC[N+](C)(C)Cc1cc(C[N+](C)(C)C)cc(C[N+](C)(C)CCCCCCCCCCCCCC)c1.[Br-].[Br-].[Br-] | kcal/mol | -8.84

A = CCCCCCCCCCCCCCCC[N+](C)(C)Cc1cc(C[n+]2ccccc2)cc(C[N+](C)(C)CCCCCCCCCCCCCCCC)c1.[Br-].[Br-].[Br-]
B = CCCCCCCCCCCC[N+](C)(C)Cc1cc(C[n+]2ccccc2)cc(C[N+](C)(C)CCCCCCCCCCCC)c1.[Br-].[Br-].[Br-]
C = CCCCCCCCCC[N+](C)(C)Cc1cc(C[n+]2ccccc2)cc(C[N+](C)(C)CCCCCCCCCC)c1.[Br-].[Br-].[Br-]
Please order the records by their reported ΔHmic, lowest number first. Put the labels in the requested order and list them out. A, B, C

----------
Catalogue of compounds with associated MIC S. aureus (G+)
Test system: Staphylococcus aureus
Assay: Minimum inhibitory concentration, S. aureus
Type: cell-based, Staphylococcus aureus subsp. aureus ATCC 29213
Settings: Mueller-Hinton Broth, 37° C., 72 h
Procedure: The MIC values of all compounds from both double-tailed series were determined for four Gram-positive (Staphylococcus aureus, Enterococcus faecalis, Streptococcus agalactiae, and Bacillus cereus) and two Gram-negative (Escherichia coli and Pseudomonas aeruginosa) strains, which are shown in Table 3. […]

Under Staphylococcus aureus: report MIC S. aureus (G+) of CCCCCCCC[N+](C)(C)Cc1cc(C[N+](C)(C)C)cc(C[N+](C)(C)C)c1.[Br-].[Br-].[Br-] . >250 µM

Under Staphylococcus aureus: report MIC S. aureus (G+) of CCCCCCCCCCCCCC[N+](C)(C)Cc1cc(C[N+](C)(C)C)cc(C[N+](C)(C)CCCCCCCCCCCCCC)c1.[Br-].[Br-].[Br-] . 4 to 8 µM

Under Staphylococcus aureus: report MIC S. aureus (G+) of CCCCCCCC[N+](C)(C)Cc1cc(C[n+]2ccccc2)cc(C[N+](C)(C)CCCCCCCC)c1.[Br-].[Br-].[Br-] . >250 µM

Under Staphylococcus aureus: report MIC S. aureus (G+) of CCCCCCCC[N+](C)(C)Cc1cc(C[N+](C)(C)C)cc(C[N+](C)(C)CCCCCCCC)c1.[Br-].[Br-].[Br-] . >250 µM

Under Staphylococcus aureus: report MIC S. aureus (G+) of CCCCCCCCCCCCCCCCCCCCCC[N+](C)(C)Cc1cc(C[N+](C)(C)C)cc(C[N+](C)(C)C)c1.[Br-].[Br-].[Br-] . >250 µM

----------
Experiment: Isothermal titration calorimetry: critical aggregation concentration and thermodynamics of aggregation
Format: physicochemical
Conditions: ITC, 37° C., pure water; double-tailed M-P and M-1 series
REPORTED_ENDPOINT: CMC (mM)

Example results:
COMPOUND | REPORTED_ENDPOINT | RESULT_NUMBER
CCCCCCCCCCCC[N+](C)(C)Cc1cc(C[n+]2ccccc2)cc(C[N+](C)(C)CCCCCCCCCCCC)c1.[Br-].[Br-].[Br-] [Compound 3] | CMC | 2.4
CCCCCCCCCCCC[N+](C)(C)Cc1cc(C[N+](C)(C)C)cc(C[N+](C)(C)CCCCCCCCCCCC)c1.[Br-].[Br-].[Br-] [Compound 8] | CMC | 2.5

a = CCCCCCCCCCCCCCCC[N+](C)(C)Cc1cc(C[N+](C)(C)C)cc(C[N+](C)(C)CCCCCCCCCCCCCCCC)c1.[Br-].[Br-].[Br-] [Compound 10]
b = CCCCCCCCCC[N+](C)(C)Cc1cc(C[N+](C)(C)C)cc(C[N+](C)(C)CCCCCCCCCC)c1.[Br-].[Br-].[Br-] [Compound 7]
Choose between a and b : whose measured CMC value is numerically larger? Select an item and report its label. b
(b: 12 mM, a: 0.16 mM)
